Provenance of the data: patent US20210139545A1

# system: T1, E. coli alkaline phosphatase Strep-tag®II fusion protein (E. coli, UniProt P00634 22-471 = phosphatase)
# T1 construct: mature; also called BAP-StrepII; BAP-StrepIII
# T1 sequence (P00634 22-471): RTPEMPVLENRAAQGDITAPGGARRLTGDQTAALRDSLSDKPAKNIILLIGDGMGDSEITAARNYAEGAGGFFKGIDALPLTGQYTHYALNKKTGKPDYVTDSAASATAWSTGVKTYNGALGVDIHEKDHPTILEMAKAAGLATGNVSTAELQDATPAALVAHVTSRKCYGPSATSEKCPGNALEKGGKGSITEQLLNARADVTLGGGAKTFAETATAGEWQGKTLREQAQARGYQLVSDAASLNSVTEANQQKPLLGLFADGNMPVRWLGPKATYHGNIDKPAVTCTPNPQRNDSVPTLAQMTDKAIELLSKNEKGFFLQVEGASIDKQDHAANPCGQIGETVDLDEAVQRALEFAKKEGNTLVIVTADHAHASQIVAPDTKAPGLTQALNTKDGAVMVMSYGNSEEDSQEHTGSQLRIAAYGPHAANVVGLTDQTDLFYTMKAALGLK
# assay.comment: ELISA, mutein coated, BAP-StrepII titrated
Recorded measurements of pKd, one per entry
Scale explanation: pKd corresponds to minus log10 of a concentration expressed in moles per litre.

What value of pKd has been reported for the following binder? mutein“1”-m36 (designed binder, Library 3 clone on mutein “1”) EAGITGTWYNQLGSTFIVTAGADGALTGTYVTARGNAESRYVLTGRYDSAPATDGSGTALGWTVAWKNNYRNAHSATTWSGQYVGGAEARINTQWLLTSGTTEYNAFMSTLVGHDTFTKVKPSAAS
7.92

// next item, pKd requested
# pKd lookup, item mutein“1”-m23 (designed binder, Library 3 clone on mutein “1”) EAGITGTWYNQLGSTFIVTAGADGALTGTYVTARGNAESRYVLTGRYDSAPATDGSGTALGWTVAWKNNYRNAHSATTWSGQYVGGAEARINTQWLLTSGTTEYNAYASTLVGHDTFTKVKPSAAS
7.92
